test: Pharmacokinetics, intravenous administration; format: in vivo, Male C57Bl/6J mice; details: male, C57Bl/6J, mouse, in vivo, iv, 2 mg/kg, individual mice No. 1-3, read-out: Cl obs.

MOLECULE: CC(C)(C)CN(C(=O)CCl)C1CCS(=O)(=O)C1 (stereo not shown)
clearance: 4.62 mL/min/kg

---

Overview of recorded Labeling [%] for various molecules
target: catalytic domain of Pin1 (Homo sapiens); construct: The purified catalytic domain of Pin1 was incubated with the fragment library; experiment: Intact protein LC/MS labeling of Pin1; type: binding; settings: 2 μM Pin1 with 200 μM test compound for 24 hours at 4° C.
Sequence (Q13526 52-163 limits assumed): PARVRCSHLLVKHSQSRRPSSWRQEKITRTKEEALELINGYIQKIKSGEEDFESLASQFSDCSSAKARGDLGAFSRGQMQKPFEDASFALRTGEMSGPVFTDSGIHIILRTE

MOLECULE: O=C(CCl)NCC1CCS(=O)(=O)C1 (stereo not drawn) [PCM-0102896]
Labeling [%] [%]: 42
//
MOLECULE: CC1(NC(=O)CCl)CCS(=O)(=O)C1 (stereo not drawn) [PCM-0102230]
Labeling [%] [%]: 87
//
MOLECULE: O=C(CCl)N(c1ccc(F)cc1)C1C=CS(=O)(=O)C1 (stereo not drawn) [PCM-0102868]
Labeling [%] [%]: 100

---

assay: Pharmacokinetics, oral administration; assay type: in vivo, Male C57Bl/6J mice; settings: male, C57Bl/6J, mouse, in vivo, po, 10 mg/kg, oral 10 mg/kg, Avg. of 3 mice

COMPOUND: CC(C)(C)CN(C(=O)CCl)C1CCS(=O)(=O)C1 (stereo not shown) [Pin1-3]
Tmax (min): 25.2

---

assay: Thiol reactivity assay (DTNB); type: physicochemical; conditions: 200 μM compound, pH 7.4, 37° C.

COMPOUND: O=C(CCl)N(Cc1ccco1)C1CCS(=O)(=O)C1 (centres unmarked)
Reactivity Log k: −6.83
//
COMPOUND: CC(c1ccccc1)N(C(=O)CCl)C1CCS(=O)(=O)C1 (centres unmarked)
Reactivity Log k: −7.09
//
COMPOUND: COCCN(C(=O)CCl)C1CCS(=O)(=O)C1 (centres unmarked)
Reactivity Log k: −6.80
//
COMPOUND: CCCN(C(=O)CCl)C1CCS(=O)(=O)C1 (centres unmarked)
Reactivity Log k: −6.80
//
COMPOUND: O=C(CCl)N(Cc1cn(-c2ccc(O)cc2)nn1)C1CCS(=O)(=O)C1 (centres unmarked) [Compound P1-03-C04]
Reactivity Log k: −6.42
//
COMPOUND: O=C(CCl)N(CC1CCCO1)C1CCS(=O)(=O)C1 (centres unmarked)
Reactivity Log k: −6.85
//
COMPOUND: O=C(CCl)N(C1CCS(=O)(=O)C1)C(Cc1ccccc1)c1ccccc1 (centres unmarked)
Reactivity Log k: −6.96
//
COMPOUND: O=C(CCl)N(Cc1cn(-c2ccc(CO)c(F)c2)nn1)C1CCS(=O)(=O)C1 (centres unmarked) [Compound P1-01-F08]
Reactivity Log k: −5.88
//
COMPOUND: CC(C)(C)CN(C(=O)CCl)C1(C)CCS(=O)(=O)C1 (centres unmarked)
Reactivity Log k: −7.77
//
COMPOUND: CCN(C(=O)CCl)C1CCS(=O)(=O)C1 (centres unmarked)
Reactivity Log k: −6.96
//
COMPOUND: CN(C)CCN(C(=O)CCl)C1CCS(=O)(=O)C1 (centres unmarked)
Reactivity Log k: −8.93
//
COMPOUND: O=C(CCl)N(CC1CCCC1)C1CCS(=O)(=O)C1 (centres unmarked)
Reactivity Log k: −7.15
//
COMPOUND: O=C(CCl)NC1CCS(=O)(=O)C1 (centres unmarked)
Reactivity Log k: −6.92
//
COMPOUND: CCC(C)N(C(=O)CCl)C1CCS(=O)(=O)C1 (centres unmarked)
Reactivity Log k: −6.91
//
COMPOUND: O=C(CCl)N(Cc1cn(-c2ccc(CO)cc2)nn1)C1CCS(=O)(=O)C1 (centres unmarked) [Compound P1-02-H08]
Reactivity Log k: −5.88
//
COMPOUND: O=C(CCl)N(C1CCCC1)C1CCS(=O)(=O)C1 (centres unmarked)
Reactivity Log k: −6.97
//
COMPOUND: COC(=O)c1ccc(-n2cc(CN(C(=O)CCl)C3CCS(=O)(=O)C3)nn2)cc1 (centres unmarked) [Compound P1-01-B11]
Reactivity Log k: −6.86
//
COMPOUND: Cc1ccsc1CN(C(=O)CCl)C1CCS(=O)(=O)C1 (centres unmarked)
Reactivity Log k: −6.66
//
COMPOUND: CC1(N(Cc2ccccc2)C(=O)CCl)CCS(=O)(=O)C1 (centres unmarked)
Reactivity Log k: −7.11
//
COMPOUND: O=C(CCl)N(Cc1cn(-c2cccc(Cl)c2)nn1)C1CCS(=O)(=O)C1 (centres unmarked) [Compound P1-01-G10]
Reactivity Log k: −6.92

---

assay: Pharmacokinetics, oral administration; assay type: in vivo, Male C57Bl/6J mice; conditions: male, C57Bl/6J, mouse, in vivo, po, 10 mg/kg, oral 10 mg/kg, individual mice No. 1-3

MOLECULE: CC(C)(C)CN(C(=O)CCl)C1CCS(=O)(=O)C1 (stereo not shown)
Tmax (min): 15

---

biological target: catalytic domain of Pin1 (Homo sapiens); construct: The purified catalytic domain of Pin1 was incubated with the fragment library; assay: Intact protein LC/MS labeling of Pin1; assay type: binding; conditions: 2 μM Pin1 with 2 μM test compound for 15 minutes at room temperature

COMPOUND: NS(=O)(=O)c1ccc(-n2cc(CN(C(=O)CCl)C3CCS(=O)(=O)C3)nn2)cc1 (stereo not drawn) [Compound P1-03-G07]
Labeling [%]: 73%
--
COMPOUND: COC(=O)c1ccc(-n2cc(CN(C(=O)CCl)C3CCS(=O)(=O)C3)nn2)cc1 (stereo not drawn) [Compound P1-01-B11]
Labeling [%]: 89%
--
COMPOUND: CC(=O)c1cccc(-n2cc(CN(C(=O)CCl)C3CCS(=O)(=O)C3)nn2)c1 (stereo not drawn) [Compound P1-03-D08]
Labeling [%]: 54%
--
COMPOUND: O=C(CCl)N(Cc1cn(-c2ccc(CO)cc2)nn1)C1CCS(=O)(=O)C1 (stereo not drawn) [Compound P1-02-H08]
Labeling [%]: 73%
--
COMPOUND: O=C(CCl)N(CC1CCCCC1)C1CCS(=O)(=O)C1 (stereo not drawn)
Labeling [%]: 42%
--
COMPOUND: CC(C)(C)CN(C(=O)CCl)C1CCS(=O)(=O)C1 (stereo not drawn)
Labeling [%]: 10%
--
COMPOUND: O=C(CCl)N(Cc1cn(-c2ccc(CO)c(F)c2)nn1)C1CCS(=O)(=O)C1 (stereo not drawn) [Compound P1-01-F08]
Labeling [%]: 64%
--
COMPOUND: COc1ccc(-n2cc(CN(C(=O)CCl)C3CCS(=O)(=O)C3)nn2)cc1 (stereo not drawn) [Compound P1-04-B02]
Labeling [%]: 69%
--
COMPOUND: CC(=O)c1ccc(-n2cc(CN(C(=O)CCl)C3CCS(=O)(=O)C3)nn2)cc1 (stereo not drawn) [Compound P1-02-B04]
Labeling [%]: 62%
--
COMPOUND: O=C(CCl)N(Cc1cn(-c2cccc(Cl)c2)nn1)C1CCS(=O)(=O)C1 (stereo not drawn) [Compound P1-01-G10]
Labeling [%]: 67%
--
COMPOUND: O=C(CCl)N(Cc1cn(-c2ccc(O)cc2)nn1)C1CCS(=O)(=O)C1 (stereo not drawn) [Compound P1-03-C04]
Labeling [%]: 72%
--
COMPOUND: O=C(CCl)N(Cc1cn(-c2cc(Br)ccc2O)nn1)C1CCS(=O)(=O)C1 (stereo not drawn) [Compound P1-02-E11]
Labeling [%]: 70%

---

test: Thiol reactivity assay (DTNB); format: physicochemical; conditions: 200 μM compound, pH 7.4, 37° C.
QUANTITY MEASURED: Reactivity Log k

MOLECULE: COc1ccc(-n2cc(CN(C(=O)CCl)C3CCS(=O)(=O)C3)nn2)cc1 (stereo not drawn) [Compound P1-04-B02]
OBSERVED VALUE: −5.76

MOLECULE: CC(C)(C)CN(C(=O)CCl)C1CCS(=O)(=O)C1 (stereo not drawn) [Pin1-3]
OBSERVED VALUE: −7.43

MOLECULE: NS(=O)(=O)c1ccc(-n2cc(CN(C(=O)CCl)C3CCS(=O)(=O)C3)nn2)cc1 (stereo not drawn) [Compound P1-03-G07]
OBSERVED VALUE: −5.86

MOLECULE: O=C(CCl)N(Cc1ccccc1)C1CCS(=O)(=O)C1 (stereo not drawn) [Pin1-437]
OBSERVED VALUE: −6.82

MOLECULE: O=C(CCl)N(Cc1cccs1)C1CCS(=O)(=O)C1 (stereo not drawn) [Pin1-433]
OBSERVED VALUE: −6.67

MOLECULE: O=C(CCl)N(C1CCCCC1)C1CCS(=O)(=O)C1 (stereo not drawn) [PCM-0102760]
OBSERVED VALUE: −7.00

MOLECULE: O=C(CCl)N(Cc1ccccc1-c1cccc(C(F)(F)F)c1)C1CCS(=O)(=O)C1 (stereo not drawn) [Pin1-3-8]
OBSERVED VALUE: −7.09

MOLECULE: O=C(CCl)N(Cc1ccccc1OCc1ccccc1)C1CCS(=O)(=O)C1 (stereo not drawn) [Pin1-2-7]
OBSERVED VALUE: −6.99

MOLECULE: O=C(CCl)N(Cc1cn(-c2cc(Br)ccc2O)nn1)C1CCS(=O)(=O)C1 (stereo not drawn) [Compound P1-02-E11]
OBSERVED VALUE: −5.98
